Where do these numbers come from? They come from ChEMBL document CHEMBL5291721.

Molecular target: Adenosine receptor A1 (Homo sapiens); note: assay procedure not described here
Sequence (P30542 whole entry): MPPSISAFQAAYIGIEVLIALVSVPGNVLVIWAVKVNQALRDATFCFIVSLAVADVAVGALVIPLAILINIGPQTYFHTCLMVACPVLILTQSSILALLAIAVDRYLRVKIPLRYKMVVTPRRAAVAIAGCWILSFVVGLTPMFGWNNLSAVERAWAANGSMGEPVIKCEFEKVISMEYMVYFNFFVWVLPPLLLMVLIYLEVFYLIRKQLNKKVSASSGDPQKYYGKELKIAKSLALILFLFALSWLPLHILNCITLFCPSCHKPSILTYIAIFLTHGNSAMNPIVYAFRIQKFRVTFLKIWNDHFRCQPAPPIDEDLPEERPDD
parameter measured: AC50

CC(=O)c1ccc2c(c1)N(CCCN1CCN(CCO)CC1)c1ccccc1S2 :: > 30 µM
O=C(CCCCCCC(=O)Nc1ccccc1)NO :: > 30 µM
CN1CCc2cccc3c2[C@H]1Cc1ccc(O)c(O)c1-3 :: > 30 µM
COC(=O)N[C@H](C(=O)N[C@@H](Cc1ccccc1)[C@@H](O)CN(Cc1ccc(-c2ccccn2)cc1)NC(=O)[C@@H](NC(=O)OC)C(C)(C)C)C(C)(C)C :: > 30 µM
CCOc1cc(N)c([N+](=O)[O-])cc1C(=O)NC1CCN(CC2CC=CCC2)CC1 (centres undefined) [CINITAPRIDE] :: > 30 µM
C1COC(NC(C2CC2)C2CC2)=N1 :: > 30 µM

Request: For the compound O=C(O)c1cc(-c2ccc(F)cc2F)ccc1O , give its measured AC50 value.
Result: > 10 µM

Request: For the compound C1=Cc2cccc(OCC3CNCCO3)c2C1 (centres undefined) , give its measured AC50 value.
Result: > 30 µM

Request: For the compound CC(C(=O)O)c1ccc(N2CC=CC2)c(Cl)c1 (centres undefined) , give its measured AC50 value.
Result: > 30 µM

----------
Target: Sodium-dependent dopamine transporter (Homo sapiens, UniProt Q01959); note: assay procedure not described here
Sequence (Q01959 whole entry): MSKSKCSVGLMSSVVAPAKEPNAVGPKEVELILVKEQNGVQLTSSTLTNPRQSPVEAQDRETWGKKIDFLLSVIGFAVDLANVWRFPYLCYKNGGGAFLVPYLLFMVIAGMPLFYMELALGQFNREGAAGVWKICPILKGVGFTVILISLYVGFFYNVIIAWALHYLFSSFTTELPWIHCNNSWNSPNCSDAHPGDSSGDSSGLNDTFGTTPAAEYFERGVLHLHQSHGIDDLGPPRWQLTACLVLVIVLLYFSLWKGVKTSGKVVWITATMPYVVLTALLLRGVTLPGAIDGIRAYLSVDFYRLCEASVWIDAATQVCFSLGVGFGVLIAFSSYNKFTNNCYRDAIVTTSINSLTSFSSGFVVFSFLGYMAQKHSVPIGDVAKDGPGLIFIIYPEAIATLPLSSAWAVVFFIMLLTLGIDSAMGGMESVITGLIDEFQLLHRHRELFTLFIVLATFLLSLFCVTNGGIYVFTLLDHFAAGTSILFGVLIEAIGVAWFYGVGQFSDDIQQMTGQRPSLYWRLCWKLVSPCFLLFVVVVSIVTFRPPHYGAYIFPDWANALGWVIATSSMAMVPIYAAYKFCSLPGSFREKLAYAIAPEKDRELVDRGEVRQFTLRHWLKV
We begin with a simple list: items and their reported AC50.

Here's what some known entries look like.
OCCN1CCN(CCCN2c3ccccc3C=Cc3ccccc32)CC1 :: 10.9 µM
Cc1cc2c(cc1CC(=O)c1sccc1S(=O)(=O)Nc1onc(C)c1Cl)OCO2 :: > 30 µM
COc1ccc(CCC(C)NCC(O)c2ccc(O)c([S+](C)[O-])c2)cc1 (stereo unspecified) :: > 30 µM
O=C(Nc1ccccc1)OCC(CN1CCCCC1)OC(=O)Nc1ccccc1 (stereo unspecified) :: > 30 µM
CCO[C@@H](Cc1ccc(OCCn2c(C)ccc2-c2ccc(SC)cc2)cc1)C(=O)O :: > 30 µM

Request: For the compound CC(=O)Oc1c(C)cc(OCC(O)CNC(C)C)c(C)c1C (stereo unspecified) , give its measured AC50 value.
Result: > 30 µM

Request: For the compound OC[C@@H](O)[C@@H](O)[C@H](O)[C@H](O)CO , give its measured AC50 value.
Result: > 30 µM

----------
We begin with a simple list: items and their reported AC50.
Target: cGMP-inhibited 3',5'-cyclic phosphodiesterase 3A (Homo sapiens, UniProt Q14432); note: assay procedure not described here
Sequence (Q14432 whole entry): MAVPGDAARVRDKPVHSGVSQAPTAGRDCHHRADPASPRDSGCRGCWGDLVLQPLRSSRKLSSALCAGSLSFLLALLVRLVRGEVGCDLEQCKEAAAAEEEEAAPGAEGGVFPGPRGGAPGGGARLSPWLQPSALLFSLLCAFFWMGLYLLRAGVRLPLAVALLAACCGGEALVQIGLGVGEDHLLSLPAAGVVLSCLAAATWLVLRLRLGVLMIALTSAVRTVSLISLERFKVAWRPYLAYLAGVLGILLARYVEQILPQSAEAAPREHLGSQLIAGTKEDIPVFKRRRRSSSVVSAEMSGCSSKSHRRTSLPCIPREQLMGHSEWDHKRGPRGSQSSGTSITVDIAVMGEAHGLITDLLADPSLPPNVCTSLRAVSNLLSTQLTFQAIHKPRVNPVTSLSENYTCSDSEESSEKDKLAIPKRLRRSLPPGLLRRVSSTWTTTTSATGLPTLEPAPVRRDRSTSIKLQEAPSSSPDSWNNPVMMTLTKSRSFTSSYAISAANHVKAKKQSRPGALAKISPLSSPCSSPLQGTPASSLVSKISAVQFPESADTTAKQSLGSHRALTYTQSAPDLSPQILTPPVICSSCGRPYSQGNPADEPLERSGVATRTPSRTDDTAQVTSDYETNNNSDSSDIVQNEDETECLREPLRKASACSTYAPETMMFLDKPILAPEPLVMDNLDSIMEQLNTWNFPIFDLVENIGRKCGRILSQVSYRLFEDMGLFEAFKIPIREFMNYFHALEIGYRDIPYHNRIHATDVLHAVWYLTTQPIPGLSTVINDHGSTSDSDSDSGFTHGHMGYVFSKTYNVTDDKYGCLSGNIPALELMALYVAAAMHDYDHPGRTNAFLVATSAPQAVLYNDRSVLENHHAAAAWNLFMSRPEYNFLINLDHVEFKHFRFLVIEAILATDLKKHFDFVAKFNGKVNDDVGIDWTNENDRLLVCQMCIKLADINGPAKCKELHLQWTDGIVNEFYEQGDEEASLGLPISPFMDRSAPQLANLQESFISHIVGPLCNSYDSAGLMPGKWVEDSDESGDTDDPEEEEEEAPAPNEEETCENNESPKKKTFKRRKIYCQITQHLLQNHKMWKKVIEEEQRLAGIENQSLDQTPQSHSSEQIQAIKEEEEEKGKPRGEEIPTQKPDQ
Format: functional

Here's what some known entries look like.
CCC[C@@H]1C[C@@H](C(=O)N[C@@H]([C@H]2O[C@H](SC)[C@H](O)[C@@H](O)[C@H]2O)[C@H](C)Cl)N(C)C1 :: > 30 µM
CC(C)(N)Cc1ccc(Cl)cc1 :: > 30 µM
Cc1cccc(C)c1OCC(C)N (stereo not given) :: > 30 µM
COc1c(C)c2c(c(O)c1C/C=C(\C)CCC(=O)OCCN1CCOCC1)C(=O)OC2 [MYCOPHENOLATE MOFETIL] :: 17 µM

Request: For the compound Nc1nc2ccc(OC(F)(F)F)cc2s1 , give its measured AC50 value.
Result: > 30 µM

----------
We begin with a simple list: items and their reported AC50.
Target: Muscarinic acetylcholine receptor M1 (Homo sapiens); note: assay procedure not described here
Sequence (P11229 whole entry): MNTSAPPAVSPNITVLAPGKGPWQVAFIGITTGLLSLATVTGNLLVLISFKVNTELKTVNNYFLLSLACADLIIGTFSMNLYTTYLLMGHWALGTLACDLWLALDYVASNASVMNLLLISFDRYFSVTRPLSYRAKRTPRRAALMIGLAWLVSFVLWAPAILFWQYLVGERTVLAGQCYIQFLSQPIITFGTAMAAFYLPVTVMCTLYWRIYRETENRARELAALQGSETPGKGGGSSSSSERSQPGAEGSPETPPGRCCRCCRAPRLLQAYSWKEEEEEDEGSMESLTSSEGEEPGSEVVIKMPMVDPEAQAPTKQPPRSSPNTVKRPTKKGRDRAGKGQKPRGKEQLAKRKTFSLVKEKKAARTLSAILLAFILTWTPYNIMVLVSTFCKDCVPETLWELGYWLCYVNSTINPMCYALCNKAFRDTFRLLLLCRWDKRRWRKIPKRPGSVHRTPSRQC
Type: functional

Here's what some known entries look like.
COc1ccc(C(=O)N2CCN(c3ccc4c(c3)CCC(=O)N4)CC2)cc1OC [VESNARINONE] :: > 30 µM
COC(=O)N[C@H](C(=O)N1CCC[C@H]1c1nc(-c2ccc(-c3ccc(-c4c[nH]c([C@@H]5CCCN5C(=O)[C@@H](NC(=O)OC)C(C)C)n4)cc3)cc2)c[nH]1)C(C)C :: > 30 µM

We next turn to a different molecule, shown below.
Request: For the molecule O=C1CN=C(c2ccccc2)c2cc(Cl)ccc2N1CC(F)(F)F [HALAZEPAM] , give its measured AC50 value.
Result: > 30 µM

----------
Listed here: compounds with reported AC50 for Adenosine receptor A3 (Homo sapiens, UniProt P0DMS8).

CC[C@]1(O)C[C@@H]2CN(CCc3c([nH]c4ccccc34)[C@@](C(=O)OC)(c3cc4c(cc3OC)N(C)[C@H]3[C@@](O)(C(N)=O)[C@H](O)[C@]5(CC)C=CCN6CC[C@]43[C@@H]65)C2)C1 [VINDESINE] :: > 30 µM
CN(C)C(=O)OC1N=C(c2ccccc2)c2cc(Cl)ccc2N(C)C1=O (configuration not stated) [CAMAZEPAM] :: > 30 µM
C[N+](C)(C)CC(=O)O [BETAINE] :: > 30 µM
CCC1(C2=CCCCCC2)C(=O)NC(=O)NC1=O [HEPTABARBITAL] :: > 10 µM
NC(=O)c1cnccn1 [PYRAZINAMIDE] :: 3.86 µM

Request: For the compound Cc1cccc(C)c1NC(=O)C1CCCCN1C (configuration not stated) [MEPIVACAINE] , give its measured AC50 value.
Result: > 30 µM

Request: For the compound N[C@@H](CSCC(=O)O)C(=O)O [CARBOCYSTEINE] , give its measured AC50 value.
Result: > 30 µM

Request: For the compound Cc1c(C(=O)Nc2ccc(N3C[C@@H](C)O[C@@H](C)C3)nc2)cccc1-c1ccc(OC(F)(F)F)cc1 [SONIDEGIB] , give its measured AC50 value.
Result: > 30 µM

Request: For the compound NC[C@H]1O[C@H](O[C@H]2[C@H](O)[C@@H](O[C@H]3O[C@H](CO)[C@@H](O)[C@H](N)[C@H]3O)[C@H](N)C[C@@H]2N)[C@H](O)[C@@H](O)[C@@H]1O [KANAMYCIN] , give its measured AC50 value.
Result: > 10 µM

Request: For the compound CN(CCOc1ccc(NS(C)(=O)=O)cc1)CCc1ccc(NS(C)(=O)=O)cc1 [DOFETILIDE] , give its measured AC50 value.
Result: > 30 µM

Request: For the compound CC(Cc1ccccc1)NCCC(c1ccccc1)c1ccccc1 (configuration not stated) [PRENYLAMINE] , give its measured AC50 value.
Result: 15.6 µM

Request: For the compound COC(=O)N[C@H](C(=O)N1CCC[C@H]1c1nc(-c2ccc(-c3ccc(-c4c[nH]c([C@@H]5CCCN5C(=O)[C@@H](NC(=O)OC)C(C)C)n4)cc3)cc2)c[nH]1)C(C)C , give its measured AC50 value.
Result: > 30 µM

----------
Target: Cholecystokinin receptor type A (Homo sapiens, UniProt P32238); note: assay procedure not described here
Sequence (P32238 whole entry): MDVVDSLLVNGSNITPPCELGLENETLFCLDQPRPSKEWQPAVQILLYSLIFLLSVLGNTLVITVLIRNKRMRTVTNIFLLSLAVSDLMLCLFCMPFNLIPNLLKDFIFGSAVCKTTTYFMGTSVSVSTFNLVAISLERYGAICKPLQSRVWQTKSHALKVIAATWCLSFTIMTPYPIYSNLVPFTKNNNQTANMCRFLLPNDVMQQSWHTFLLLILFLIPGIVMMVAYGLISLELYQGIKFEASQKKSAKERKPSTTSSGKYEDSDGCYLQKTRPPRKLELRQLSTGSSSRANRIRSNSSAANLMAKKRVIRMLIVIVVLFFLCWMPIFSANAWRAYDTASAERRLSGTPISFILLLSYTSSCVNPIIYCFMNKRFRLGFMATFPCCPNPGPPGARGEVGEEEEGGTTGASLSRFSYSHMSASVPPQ
parameter measured: AC50

Request: Fill in: AC50 on Cholecystokinin receptor type A (Homo sapiens, UniProt P32238), entry CCCC(CCC)C(=O)O[C@H]1C[C@H]2CC[C@@H](C1)[N+]2(C)C [ANISOTROPINE]
Result: > 30 µM

Request: Fill in: AC50 on Cholecystokinin receptor type A (Homo sapiens, UniProt P32238), entry CCN(CC)CCOC(=O)c1ccc(N)cc1 [PROCAINE]
Result: > 30 µM

Request: Fill in: AC50 on Cholecystokinin receptor type A (Homo sapiens, UniProt P32238), entry CC(C)NCC1CCc2cc(CO)c([N+](=O)[O-])cc2N1 (stereo not drawn) [OXAMNIQUINE]
Result: > 10 µM

Request: Fill in: AC50 on Cholecystokinin receptor type A (Homo sapiens, UniProt P32238), entry C#C[C@]1(O)CC[C@H]2[C@@H]3CCC4=CCCC[C@@H]4[C@H]3CC[C@@]21C [LYNESTRENOL]
Result: > 30 µM

Request: Fill in: AC50 on Cholecystokinin receptor type A (Homo sapiens, UniProt P32238), entry C[C@H]1C[C@@H]2[C@H]([C@@H](O)C[C@@]3(C)[C@H]2CC[C@]3(O)C(=O)COC(=O)CCC(=O)O)[C@@]2(C)C=CC(=O)C=C12 [METHYLPREDNISOLONE HEMISUCCINATE]
Result: > 30 µM

Request: Fill in: AC50 on Cholecystokinin receptor type A (Homo sapiens, UniProt P32238), entry O=C(OCCN1CCOCC1)c1cccnc1Nc1cccc(C(F)(F)F)c1 [MORNIFLUMATE]
Result: > 30 µM

Request: Fill in: AC50 on Cholecystokinin receptor type A (Homo sapiens, UniProt P32238), entry CC/C=C\C/C=C\C/C=C\CCCCCCCC(=O)O [LINOLENIC ACID]
Result: > 30 µM

Request: Fill in: AC50 on Cholecystokinin receptor type A (Homo sapiens, UniProt P32238), entry C#CCN(C)[C@H](C)Cc1ccccc1 [SELEGILINE]
Result: > 10 µM
